Cited source for all entries: PubChem BioAssay (NCI)

System: K-562 leukemia
Assay Overview: NCI-60 one-dose screen, 48 h
Assay Conditions: 10 µM unless noted
Protocol: Cells are grown in 96 well plates and exposed to the test compound for 48 hours. Compounds are tested at a single concentration, which is 10^-5 M for most compounds. The reported endpoint is percent growth (GI% or GIPRCNT), where numbers from 0 - 100% represent growth inhibition, and numbers from -100% - 0 represent cell death. For example, a value of 40 represents 60% growth inhibition. A value of 0 means no net growth occurred over the course of the experiment. […]
The panel holds about 83,000 compounds, 20% with a hit somewhere; the sample as a whole holds those more often. Activity calls are given as the source filed them. How the source made its calls: active means growth percent below 10; inactive means the rest.
Outcome codes: 1.0 (active), 0.0 (inactive)

>  <Compound>
O=c1c2sc3ncc(Br)cc3c2ncn1-c1cccc(Cl)c1

>  <Discrete Label>
0.0

$$$$
>  <Compound>
Oc1cccc2oc(=S)[nH]c12

>  <Discrete Label>
0.0

$$$$
>  <Compound>
Nc1c2c(nc3ccc(Br)cc13)CC(c1ccccc1)CC2=O (stereo unspecified)

>  <Discrete Label>
0.0

$$$$
>  <Compound>
CC(c1ccccc1)N1C(=O)C(C2SC(=S)N(C(C)c3ccccc3)C2=O)SC1=S (stereo unspecified)

>  <Discrete Label>
0.0

$$$$
>  <Compound>
NS(=O)(=O)c1ccc(CCNC(=O)/C=C/c2ccc(Cl)cc2)cc1

>  <Discrete Label>
0.0

$$$$
>  <Compound>
COc1ccc(C2C(C#N)=C(N)Oc3c2sc2c(F)cccc32)cc1 (stereo unspecified)

>  <Discrete Label>
1.0

$$$$
>  <Compound>
CCCCC[C@H]1C/C=C2/C(=O)C(Cl)=C[C@@H]2C/C=C\CCCC(=O)O1

>  <Discrete Label>
1.0

$$$$
>  <Compound>
NCCn1cc(-c2nc(-c3c[nH]c4ncccc34)cs2)c2cc(Br)ccc21

>  <Discrete Label>
0.0

$$$$
>  <Compound>
CCc1nnc(NC(=O)c2ccoc2COc2ccccc2)s1

>  <Discrete Label>
0.0

$$$$
>  <Compound>
COc1cccc(-c2nn(-c3ccccc3)cc2-c2ccnc(NCCNS(=O)(=O)c3ccc(C(F)(F)F)cc3)c2)c1

>  <Discrete Label>
1.0

$$$$
>  <Compound>
COc1cc(-c2cc(-c3nc4ccc(F)cc4[nH]3)[nH]n2)cc(OC)c1OC

>  <Discrete Label>
1.0

$$$$
>  <Compound>
COc1cccc(-c2nn(-c3ccccc3)cc2-c2ccnc(NCCNS(=O)(=O)c3cccc(F)c3)c2)c1

>  <Discrete Label>
0.0

$$$$
>  <Compound>
Cc1cccc2c1NC(=O)[C@@]21[C@H](C(=O)c2ccccc2)[C@]2(C(=O)Nc3ccccc32)[C@H]2CCCN21

>  <Discrete Label>
0.0

$$$$
>  <Compound>
CCOC(=O)C/C(=C\c1ccccc1)C(C)=O

>  <Discrete Label>
0.0

$$$$
>  <Compound>
O=C(N/N=C\c1c(O)ccc2ccccc12)C1CC1

>  <Discrete Label>
0.0

$$$$
>  <Compound>
COC1=C(Br)C(=O)C(OC)=C(Br)C1=O

>  <Discrete Label>
0.0

$$$$
>  <Compound>
Cn1c(/C(C#N)=C/c2ccc3ccccc3c2)cc2ccccc21

>  <Discrete Label>
0.0

$$$$
>  <Compound>
CCOc1ccc(NC(=O)c2ccccc2-c2ccccc2C(=O)O)cc1

>  <Discrete Label>
0.0

$$$$
>  <Compound>
CCCNc1nc(N(C)O)nc(N(C)O)n1

>  <Discrete Label>
0.0

$$$$
>  <Compound>
Nc1c(Cl)cc(N=Nc2ccccc2)cc1Cl

>  <Discrete Label>
0.0

$$$$
>  <Compound>
COCCNC1=C(Cl)C(=O)c2ccccc2C1=O

>  <Discrete Label>
0.0

$$$$
>  <Compound>
Nc1c(C(=O)Nc2c(Cl)cccc2Cl)sc2nc3c(cc12)CCCC3

>  <Discrete Label>
0.0

$$$$
>  <Compound>
Nc1ncnc2nc(Br)[nH]c12

>  <Discrete Label>
0.0

$$$$
>  <Compound>
CC(=O)O[C@H]1CC[C@]2(C)[C@H]3CC=C4[C@@H]5[C@H](C)[C@@H](C)CC[C@]5(C(=O)NCCNCCNCCN)CC[C@@]4(C)[C@]3(C)CC[C@H]2C1(C)C

>  <Discrete Label>
0.0

$$$$
>  <Compound>
Fc1ccc(Nc2ccc3c(OCCCN4CCOCC4)cccc3n2)cc1F

>  <Discrete Label>
1.0

$$$$
>  <Compound>
Cn1c2ccccc2c2c3c(c4c5cccnc5[nH]c4c21)C(=O)N(O)C3=O

>  <Discrete Label>
0.0

$$$$
>  <Compound>
COC(=O)[C@]12CC[C@@H](C(/C=C/c3cccnc3)=N/O)[C@@H]1[C@H]1CC[C@@H]3[C@@]4(C)CC(=C/c5cccnc5)/C(=N/O)C(C)(C)[C@@H]4CC[C@@]3(C)[C@]1(C)CC2

>  <Discrete Label>
0.0

$$$$
>  <Compound>
COc1ccc2nc(-c3c(-c4ccccc4)nc4ncccn34)[nH]c2c1

>  <Discrete Label>
0.0

$$$$
>  <Compound>
C=C1C(=O)O[C@H]2[C@H]1CC/C(COC(=O)NCc1cc3ccccc3[nH]1)=C\CC[C@@]1(C)O[C@@H]21

>  <Discrete Label>
1.0

$$$$
>  <Compound>
CCSc1sc(-c2ccc(C)cc2)nc1[P+](c1ccccc1)(c1ccccc1)c1ccccc1

>  <Discrete Label>
1.0

$$$$
>  <Compound>
COc1ccc(-c2cc(-c3c(C)oc4cc5occc5c(OC)c4c3=O)nc(N)c2C#N)cc1OC

>  <Discrete Label>
0.0

$$$$
>  <Compound>
O=C1c2ccccc2NC(c2cn(-c3ccccc3)nc2-c2cccs2)N1Cc1ccccc1 (stereo unspecified)

>  <Discrete Label>
0.0

$$$$
>  <Compound>
COc1ccc2c(c1)C(Br)=C(CCO)C2c1ccccc1 (stereo unspecified)

>  <Discrete Label>
0.0

$$$$
>  <Compound>
Cc1ccc(Sc2sc(-c3ccccc3)nc2[P+](c2ccccc2)(c2ccccc2)c2ccccc2)cc1

>  <Discrete Label>
1.0

$$$$
>  <Compound>
COc1ccccc1-n1cnc(N)c1C(=O)c1cc(OC)c(OC)c(OC)c1

>  <Discrete Label>
0.0

$$$$
>  <Compound>
NC1=NN(c2ccccc2)C(=O)/C1=C/c1ccc(Cl)cc1

>  <Discrete Label>
0.0

$$$$
>  <Compound>
Cn1c(=O)c2c(nc(N3CCCC3)n2C)n(C)c1=O

>  <Discrete Label>
0.0

$$$$
>  <Compound>
COc1ccc(C2=NN(c3nc(-c4ccc(OC)cc4)c(C#N)c(=O)n3C)C(=O)CC2)cc1

>  <Discrete Label>
0.0

$$$$
>  <Compound>
CCN(CC)CCCCCCNc1ccnc2cc(Cl)ccc12

>  <Discrete Label>
0.0

$$$$
>  <Compound>
N#CCCCCCn1c2ccccc2c2c3c(c4c5ccccc5n(CCCCCC#N)c4c21)C(=O)N(O)C3=O

>  <Discrete Label>
0.0

$$$$
>  <Compound>
CC(=O)Nc1cc(F)cc(C(F)(F)F)c1Cl

>  <Discrete Label>
0.0

$$$$

----------
# growth annotations
Tested on: SF-268 CNS
Assay Overview: NCI-60 one-dose screen, 48 h (100 = growth as untreated, 0 = no growth, -100 = all killed)
Assay Conditions: 10 µM unless noted
Compounds without any hit were thinned out: in the full panel of roughly 83,000, 20% have a hit.

>  <Compound Smiles>
COc1ccc(-c2n[nH]nc2-c2cc3ccccc3s2)cc1O

>  <Value Units>
%

>  <growth>
37

$$$$
>  <Compound Smiles>
C=C(C)[C@@H]1CC[C@]2(/C=N/Nc3ccncc3)CC[C@]3(C)[C@H](CC[C@@H]4[C@@]5(C)CCCNC(C)(C)[C@@H]5CC[C@]43C)[C@@H]12

>  <Value Units>
%

>  <growth>
97.2

$$$$
>  <Compound Smiles>
Brc1ccc(Cn2nnnc2-c2ccn(-c3ccccc3)n2)cc1

>  <Value Units>
%

>  <growth>
73.2

$$$$
>  <Compound Smiles>
Cn1cc(-c2csc(-c3cn(CCCN4CCCCC4)c4ccc(F)cc34)n2)c2cccnc21

>  <Value Units>
%

>  <growth>
89

$$$$
>  <Compound Smiles>
C[C@H]1OC(=O)/C=C/[C@@H](O)[C@@H](O)CCCCCCCC[C@@H]1O

>  <Value Units>
%

>  <growth>
102

$$$$
>  <Compound Smiles>
C[C@@H](C(=O)O)c1ccc2c3cc(Cl)ccc3n(Cc3cc(=O)oc4ccc(Cl)cc34)c2c1

>  <Value Units>
%

>  <growth>
93.4

$$$$
>  <Compound Smiles>
Cn1cc(-c2csc(-c3cn(CCNC(=O)OC(C)(C)C)c4ccccc34)n2)c2cccnc21

>  <Value Units>
%

>  <growth>
90.5

$$$$
>  <Compound Smiles>
O=C(N/N=C\c1ccccc1O)C1CC1

>  <Value Units>
%

>  <growth>
98.7

$$$$
>  <Compound Smiles>
COc1cc(/C=N/Nc2ncnc3c2c(C)nn3-c2ccc(F)cc2)ccc1O

>  <Value Units>
%

>  <growth>
71

$$$$
